Reference source for all entries: patent US11773067B2

target: human MrgX1 receptor (Homo sapiens); test: IP1 Cellular Assay for EC50 Determination Against hMrgX1 by HTRF; details: HEK293 cells stably expressing hMrgX1; in presence of EC15 of BAM8-22; geometric mean (SEM, n); read-out: Relative EC50 (SEM, n)
Sequence (Q96LB2 whole entry): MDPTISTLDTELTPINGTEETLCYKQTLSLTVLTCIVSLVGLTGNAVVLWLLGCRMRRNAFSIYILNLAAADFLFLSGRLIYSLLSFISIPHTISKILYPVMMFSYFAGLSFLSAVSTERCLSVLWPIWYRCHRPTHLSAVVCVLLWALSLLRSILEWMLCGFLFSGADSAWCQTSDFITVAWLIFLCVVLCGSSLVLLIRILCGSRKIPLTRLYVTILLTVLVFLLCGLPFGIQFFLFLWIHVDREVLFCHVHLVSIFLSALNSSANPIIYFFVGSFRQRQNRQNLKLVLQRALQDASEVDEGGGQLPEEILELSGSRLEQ
pEC50: −log10 of the molar value.
measurement.type: pEC50

> print(dat)
                                   molecule                          target.desc   val
1  Cc1c(Oc2c(F)cc(C#N)cc2F)nc(N)nc1C(F)(F)F [Example 5]  human MrgX1 receptor (Homo sapiens)  7.09
2  Nc1nc(Oc2c(F)cccc2F)cc(C(F)(F)F)n1 [Example 1]  human MrgX1 receptor (Homo sapiens)  7.14
3  N#Cc1cc(F)c(Oc2cc(C(F)(F)F)nc(N)n2)c(F)c1 [Example 3]  human MrgX1 receptor (Homo sapiens)  6.98
4  Cc1c(Oc2c(F)cc(F)cc2F)nc(N)nc1C(F)(F)F [Example 4]  human MrgX1 receptor (Homo sapiens)  7.40
5  Cc1c(Oc2c(F)cccc2F)nc(N)nc1C(F)(F)F [Example 6]  human MrgX1 receptor (Homo sapiens)  7.42
6  Nc1nc(Oc2c(F)cc(F)cc2F)cc(C(F)(F)F)n1 [Example 2]  human MrgX1 receptor (Homo sapiens)  7.21

====

Test: In Vivo Determination of Kp,uu,brain in Mice
Parameters: species or system mouse
Settings: male, C57Bl/6, brain/plasma; mouse, 10 mg/kg oral, 2 h
Procedure: In Vivo Determination of Kp,uu,brain in Mice Unbound brain-to-plasma partition coefficient (Kp,uu,brain) is one of the key pharmacokinetic parameter for evaluating a compound's ability to cross the blood-brain barrier (BBB). It is typically measured in pre-clinical species using the following methodology. […] Pharmacokinetic sampling: Plasma and brain samples obtained are analyzed for Example 2 using an LC-MS/MS method (Q2 Solutions, Indianapolis, IN, USA). […]
measurement.type: Kp uu at 2 h

> print(dat)
                                   compound    val
1  Nc1nc(Oc2c(F)cc(F)cc2F)cc(C(F)(F)F)n1 [Example 2]  0.586

====

test: In Vivo Determination of Kp,uu,brain in Mice; design: species or system mouse; conditions: male, C57Bl/6, mouse, plasma, po, 3 mg/kg, mouse, 3 mg/kg oral, 2 h; using fu,plasma 0.0421; read-out: Unbound plasma conc. (Cu,plasma) ± SD
measurement.type: concentration at 2 h (nM)

> print(dat)
                           sample.smiles      measurement.type  readout.unit   val
1  Nc1nc(Oc2c(F)cc(F)cc2F)cc(C(F)(F)F)n1  concentration at 2 h            nM  34.1

====

assay: In Vivo Determination of Kp,uu,brain in Mice; design: species or system mouse; conditions: male, C57Bl/6, mouse, plasma, po, 30 mg/kg, mouse, 30 mg/kg oral, 2 h; read-out: Total plasma conc. (Ctotal,plasma) ± SD
measurement.type: concentration at 2 h

> print(dat)
                                   compound      measurement.type     val
1  Nc1nc(Oc2c(F)cc(F)cc2F)cc(C(F)(F)F)n1 [Example 2]  concentration at 2 h  9.7 µM
